test-target: apelin receptor (APJ) (Homo sapiens, UniProt P35414)
Sequence (P35414 whole entry): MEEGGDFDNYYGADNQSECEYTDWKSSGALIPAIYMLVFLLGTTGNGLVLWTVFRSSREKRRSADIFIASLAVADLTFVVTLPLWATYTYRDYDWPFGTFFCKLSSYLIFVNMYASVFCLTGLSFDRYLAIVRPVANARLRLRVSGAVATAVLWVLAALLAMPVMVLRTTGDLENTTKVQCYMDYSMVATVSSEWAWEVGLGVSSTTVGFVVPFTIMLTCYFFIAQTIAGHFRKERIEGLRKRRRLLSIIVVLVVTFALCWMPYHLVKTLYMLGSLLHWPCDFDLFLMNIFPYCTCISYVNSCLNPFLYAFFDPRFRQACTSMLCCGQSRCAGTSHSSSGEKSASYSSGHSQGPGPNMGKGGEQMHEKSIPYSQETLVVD
assay-explanation: In vitro apelin agonist activity (methods of Giddings et al., Apelin-13 as positive control)
Assay type: cell-based
condition-summary: apelin agonist potency as listed in Table 3 (Cellular Uptake Results); read-out: EC50
property-measured: EC50 (nM)
Numeric answer only, unit nM assumed.

compound: COc1cccc(OC)c1-c1cc(C(=O)N[C@@H](CCN2CCC(F)(F)CC2)CC(=O)NC2CCC2)nn1C1CCCC1 [compound 335]
property-measured: EC50
reading-unit: nM
recorded-number: 63
--
compound: CCc1ccccc1-c1cc(C(=O)N[C@@H](CCN2CCCCC2)CC(=O)NC2CCC2)nn1C1CCCC1 [compound 363]
property-measured: EC50
reading-unit: nM
recorded-number: 44
--
compound: COc1cccc(OC)c1-c1cc(C(=O)N[C@@H](CCN2CCCC(F)(F)C2)CC(=O)NC2CCC2)nn1C1CCCC1 [compound 348]
property-measured: EC50
reading-unit: nM
recorded-number: 15
--
compound: COc1cccc(OC)c1-c1cc(C(=O)N[C@@H](CCN2CCCC(F)(F)C2)CC(=O)Nc2nccs2)nn1C1CCCC1 [compound 384]
property-measured: EC50
reading-unit: nM
recorded-number: 15

Query: Could you share what EC50 was measured for CCc1ccccc1-c1cc(C(=O)N[C@@H](CCN2CCCC(F)(F)C2)CC(=O)Nc2nccs2)nn1C1CCCC1 [compound 410] , tested on apelin receptor (APJ) (Homo sapiens, UniProt P35414)?
Reply: 7
